assay: soluble on expression in E. coli; label from the status in PepcDB or PDB records
QUANTITY: soluble on expression in E. coli

SEQ TEXT: MRITLVTDSTSDLPQDLRGRLGVRVVPLYVNLSGAIYRDWEEITPTEIFQKVREGAAFPTTSQPSPEDFARVYREALEEADHVLSLHISGKLSGTVQSAELAAQEFPGRVTVVDTQAASLGVGMMVLRAKELLEEGQSLEAVLAELERLRRDHFVRFSVATLEFLKRGGRIGGAQAFLGTLLNLKPVLTLKEGRVEAAGRARGEKKAREEILKAFRAWAEGRKRIRAYFLYSGDEDAVAALRQEVLASGLPVEEALVNELGAVIASHTGPGTYGFYAYSL
REPORTED MEASUREMENT: soluble
//
SEQ TEXT: AHHHHHHGSKIKVGINGYGTIGKRVAYAVTKQDDMELIGVTKTKPDFEAYRAKELGIPVYAASEEFLPRFEKAGFEVEGTLNDLLEKVDIIVDATPGGMGEKNKQLYEKAGVKAIFQGGEKAEVAQVSFVAQANYEAALGKDYVRVVSCNTTGLVRTLNAIKDYVDYVYAVMIRRAADPNDIKRGPINAIKPSVTIPSHHGPDVQTVIPINIETSAFVVPTTIMHVHSIMVELKKPLTREDVIDIFENTTRVLLFEKEKGFESTAQLIEFARDLHREWNNLYEIAVWKESINVKGNRLFYIQAVHQESDVIPENIDAIRAMFEIAEKWESIKKTNKSLGILK
REPORTED MEASUREMENT: soluble
//
SEQ TEXT: MGHHHHHHGGHMSLDEFDLIHSITPRTIHHSSVDVGIGDDAALYTAKHGVQEIVCVDTMVEDVHFKLHYSSPEDIGYKALAVNISDIAAMGGIPKFYLVSLAVPSKWTESEIKAMYEGMNELAKLYHMDLIGGDTVSTADKLVVTVTVIGEIEKGQACLRSLAKPNDIVFVTGEIGSSAAGLSLLLEETNPQNSSVETDYFIHRHKRPEPRVSVGRLCSIFKRAALNDVSDGLASELNEIAEASCVSIEIVESMLPIHSDLPKLHPNWKEWALFGGEDFELTGTVSNEEWEVLKQECAALHLPITKIGYVREKTKSKVILKTDQTSMILEKKGYNHFEGGS
REPORTED MEASUREMENT: soluble
//
SEQ TEXT: MIKLAPAGLKDDIEMRKVYAGFIAGQIEAGSPIIALEADLMSSMAMDSVARDYPQHVINCGIMEANVIGTAAGLALTGRKPFVHTFTAFASRRCFDQLFMALDYQRNNVKVIASDAGVTACHNGGTHMSFEDMGIVRGLAHSVVLEVTDAVMFADILRQLMDLDGFYWLRTIRKQARSIYAPGSTFTIGKGNVLREGDDITLIANGIMVAEALEAARQLEQEGVSAAVIDMFTLKPIDRMLVKNYAEKTRRIVTCENHSIHNGLGSAVAEVLVENCPVPMRRVGVKERYGQVGTQDFLQKEYGLTAEAIVEAAKSLL
REPORTED MEASUREMENT: not soluble
//
SEQ TEXT: QSPAEIASFSPRPSLADSKAVLNQAVADLSVAHSILHQVHWYMRGRGFMIWHPKMDEYMEEIDGYLDEMSERLITLGGAPFSTLKEFSENSQLKEVLGDYNVTIEEQLARVVEVFRYLAALFQKGFDVSDEEGDSVTNDIFNVAKASIEKHIWMLQAELGQAPKL
REPORTED MEASUREMENT: soluble
//
SEQ TEXT: MLVAYDSMTGNVKRFIHKLNMPAVQIDEDLVIDEDFILITYTTGFGNVPERVLDFLERNNEKLKGVSASGNRNWGDMFGASADKISTKYEVPIVSKFELSGTNNDVEYFKERVREIATH
REPORTED MEASUREMENT: soluble
//
SEQ TEXT: MGHHHHHHSHMPASLALLQPRAMMKTLSSGNCTLSVPAKNSYRMVVLGASRVGKSSIVSRFLNGRFEDQYTPTIEDFHRKVYNIRGDMYQLDILDTSGNHPFPAMRRLSILTGDVFILVFSLDNRESFDEVKRLQKQILEVKSCLKNKTKEAAELPMVICGNKNDHGELCRQVPTTEAELLVSGDENCAYFEVSAKKNTNVDEMFYVLFSMAKLPHEMSPALHRKISVQYGDAFHPRPFCMRRVKEMDAYGMVSPFARRPSVNSDLKYIKAKVLREGQARERDKCTIQ
REPORTED MEASUREMENT: not soluble
//
SEQ TEXT: SAQSQRAPDRVLCHSGQQQGLPRAAGGSVPHPRCH
REPORTED MEASUREMENT: soluble
//
SEQ TEXT: MGSDKIHHHHHHMRVLLLSDIHSSTQNLEKILKAAEYDAVFIAGDLTQFRPKDAKVVDEIISEQTDSCLAVHGNCDHEAILGEKYKALKFIHGKSVEFDGYTVHGVGGSGITPFNTPSEYTEREILEIMDNFVLRDFNILLSHCPPKGFLDRTYSGVHAGCEAIRERMIEFDVILCGHIHESHGVVDSPQLIVNPGPVMWGRFAVIDVEKKVVELRKL
REPORTED MEASUREMENT: not soluble
//
SEQ TEXT: MIEENLKQKIHDKFVAAKKNGHLKVTHAESKKLKDPQTTTQYWVTFAPSLALKPDANKNSDSKAEDPFANPDEELVVTEDLNGDGEYKLLLNKFPVVPEHSLLVTSEFKDQRSALTPSDLMTAYNVLCSLQGDKDDDVTCERYLVFYNCGPHSGSSQDHKHLQIMQMPEKFIPFQDVLCNGKDHFLPTFNAEPLQDDKVSFAHFVLPLPESSDQVDEDLLAMCYVSLMQRALTFFQDWTNESPELTKSYNVLLTKKWICVVPRSHAKSGPPLMLNINSTGYCGMILVKDREKLENLTEDPHLVDKSLLQCGFPNTAGQKPTEYHY
REPORTED MEASUREMENT: not soluble
//
SEQ TEXT: LIGDKNTTFVEKLNSLAADHQLPQIGFSTSSEPEWQFVKDLTEVDPEHVVKSYNRQAKYHLNKNKQFCIKLRKIGRDELPAFKRITQQTADRLHYHDKSLDFYETLFDTYGKKAKFIFAEINFKEYSESIEKDLNDIQKKLTEIAGADYHNISDLSDFSASAKRHLSEGIKTETALQKRLQEAKKMHQEAKHDIVLVSVALFVIENQEVVYLYSGSDEKYEHLFAPYEIQDTMITEAVKERIPLYNFYGVSGKFDGSDGVLGFKTHFNGYTREMVGSFDFPVQKTKYYFYRLFKKILHRQ
REPORTED MEASUREMENT: not soluble

----------
assay: soluble on expression in E. coli; label from the status in PepcDB or PDB records
QUANTITY: soluble on expression in E. coli

SEQ TEXT: MHDFVGFMNKISQINRDLDKYDHTINQVDSLHKRLLTEVNEEQASHLRHSLDNFVAQATDLQFKLKNEIKSAQRDGIHDTNKQAQAENSRQRFLKLIQDYRIVDSNYKEENKEQAKRQYMIIQPEATEDEVEAAISDVGGQQIFSQALLNANRRGEAKTALAEVQARHQELLKLEKSMAELTQLFNDMEELVIEQQ
QUANTITY: soluble on expression in E. coli
REPORTED MEASUREMENT: soluble
--
SEQ TEXT: MNRIKVAILFGGCSEEHDVSVKSAIEIAANINKEKYEPLYIGITKSGVWKMCEKPCAEWENENCYSAVLSPDKKMHGLLVKKNHEYEINHVDVAFSALHGKSGEDGSIQGLFELSGIPFVGCDIQSSAICMDKSLTYIVAKNAGIATPAFWVINKDDRPVAATFTYPVFVKPARSGSSFGVKKVNSADELDYAIESARQYDSKILIEQAVSGCEVGCAVLGNSAALVVGEVDQIRLQYGIFRIHQEVEPEKGSENAVITVPADLSAEERGRIQETVKKIYKTLGCRGLARVDMFLQDNGRIVLNEVNTLPGFTSYSRYPRMMAAAGISLPELIDRLIVLALKG
QUANTITY: soluble on expression in E. coli
REPORTED MEASUREMENT: soluble

----------
test: soluble on expression in E. coli; label from the status in PepcDB or PDB records
QUANTITY: soluble on expression in E. coli

SEQ TEXT: MGSDKIHHHHHHMQQSKEERVHDVFEKISDKYDVMNSVISFQRHKAWRKETMRIMDVKPGSKALDVCCGTADWTIALAEAVGEQGKVVGLDFSENMLSVGKQKVEALQLKQVELLHGNAMELPFEDNTFDYVTIGFGLRNVPDYMHVLKEMTRVVKPGGKVICLETSQPTMIGFRQGYILYFKYIMPLFGKLFAKSYKEYSWLQESASTFPGMKELANMFEKAGLERVQVKPFTFGVAAMHLGMKPESK
REPORTED MEASUREMENT: not soluble

SEQ TEXT: MAEITEKVLKKPNAIPDVFERKGGSAPTATHYCAGCGHGIIHKLMAEAIDELEIQDRCVLISPVGCAVFAYYYFDCGNIQVAHGRAPAVGTGVSRAEDNAIVMSYQGDGDLASIGLNETIQAANRGEKMAVFFVNNTVYGMTGGQMAPTTLIGEKTVTCQTGRDPRFAGYPIHMCELLSSLKAPVFIERVSVSDIAHIRKAKRAIKKALEIQRDGKGYAFVEILSPCPTNLRQDANAAQKFINEEMEKEFPLQNFRDRSAEVETLNRGESDFSKECLDNIFEVNSKGAEDPSEDLSFE
REPORTED MEASUREMENT: not soluble
